Provenance of the data: ChEMBL document CHEMBL1275441

- Experimental Protocol: Renal clearance in human with creatinine clearance of => 80 ml/min at 1500 mg, iv administered as single dose after 24 hrs
- Format: ADME, organism-based, Kidney
- Test Parameters: in vivo, read-out: CL_renal (converted)
Measured Endpoint: CL renal at 24 h (mL/min)
Express it in mL/min; write the number only.

Q) Please report the recorded CL renal at 24 h for `C[C@@H](O)[C@H]1C(=O)N2C(C(=O)O)=C(S[C@H]3C[C@@H](C(=O)N4CC[C@H](NC(=O)CNC(=N)N)C4)N(C)C3)[C@H](C)[C@H]12` .
A) 77.2

---

- Experimental Protocol: Volume of distribution at steady state in human with creatinine clearance of 30-49 ml/min at 1500 mg, iv administered as single dose measured after 60 mins
- Format: ADME, organism-based
- Test Parameters: in vivo, read-out: Vdss
Measured Endpoint: Vd (L)
Express it in L; write the number only.

Q) Please report the recorded Vd for C[C@@H](O)[C@H]1C(=O)N2C(C(=O)O)=C(S[C@H]3C[C@@H](C(=O)N4CC[C@H](NC(=O)CNC(=N)N)C4)N(C)C3)[C@H](C)[C@H]12 [TOMOPENEM] .
A) 17.2
